Reference source for all entries: patent US9523100B2

# mortality at 200 ppm per record follows
System: Sweetpotato Whitefly-Crawler (WF) (Bemisia tabaci) (BEMITA)
Test: Insecticidal test for Sweetpotato Whitefly-Crawler (WF) in foliar spray assay on cotton plants
Format: in vivo
Settings: 216 h, 200 ppm foliar spray on cotton plants, graded after 9 days, Abbott corrected % control, read-out: WF 200 ppm, % Control (or Mortality) rating
MEASUREMENT KIND: mortality at 200 ppm

| MOLECULE | MEASUREMENT KIND | RESULT |
| --- | --- | --- |
| CC(=O)N[C@H]1C=C[C@@H](C(=O)N(C)c2cn(-c3cccnc3)nc2Cl)C1 | mortality at 200 ppm | 80 to 100% |
| CCN(C(=O)CC/C(=N/OCc1ccc(C(F)(F)F)nc1)c1cccs1)c1cn(-c2cccnc2)nc1Cl | mortality at 200 ppm | 80 to 100% |
| CCN(C(=O)CCC(=O)NCc1ccc(C)o1)c1cn(-c2cccnc2)nc1Cl | mortality at 200 ppm | 80 to 100% |
| CCN(C(=O)Cn1ccccc1=O)c1cn(-c2cccnc2)nc1Cl | mortality at 200 ppm | 80 to 100% |
| CN(C(=O)CCN1CCSC1=O)c1cn(-c2cccnc2)nc1Cl | mortality at 200 ppm | 80 to 100% |
| CCN(C(=O)CC/C(C)=N/OCCCCC(F)(F)F)c1cn(-c2cccnc2)nc1Cl | mortality at 200 ppm | 80 to 100% |
| CCN(C(=O)CC/C(=N/OCC1CC(F)(F)C1)c1cccs1)c1cn(-c2cccnc2)nc1Cl | mortality at 200 ppm | 0 to 80% |
| CCN(C(=O)CCN1CCCC1=O)c1cn(-c2cccnc2)nc1Cl | mortality at 200 ppm | 80 to 100% |
| CCN(C(=O)CCN(CC(F)F)C(=O)CC1CC1)c1cn(-c2cccnc2)nc1Cl | mortality at 200 ppm | 80 to 100% |
| CCN(C(=O)C1CCCN(C(C)=O)C1)c1cn(-c2cccnc2)nc1Cl (centres unmarked) | mortality at 200 ppm | 0 to 80% |
| CCN(C(=O)C1CCN(C(=O)c2cccnc2)C1)c1cn(-c2cccnc2)nc1Cl (centres unmarked) | mortality at 200 ppm | 0 to 80% |
| CCN(C(=O)CC1CCN(CCC2CC2(F)F)C1=O)c1cn(-c2cccnc2)nc1Cl (centres unmarked) | mortality at 200 ppm | 80 to 100% |
| CCN(C(=O)CC1CN(C)C1=O)c1cn(-c2cccnc2)nc1Cl (centres unmarked) | mortality at 200 ppm | 80 to 100% |
| CCN(C(=O)CC1CN(Cc2ccc(C(F)(F)F)cc2)C1=O)c1cn(-c2cccnc2)nc1Cl (centres unmarked) | mortality at 200 ppm | 80 to 100% |
| CCN(C(=O)CCC(=O)NCC1CC1)c1cn(-c2cccnc2)nc1Cl | mortality at 200 ppm | 80 to 100% |
| CCN(C(=O)CCC1CNC1=O)c1cn(-c2cccnc2)nc1Cl (centres unmarked) | mortality at 200 ppm | 80 to 100% |
| CCN(C(=O)CCNC(=O)CC(C)C(F)(F)F)c1cn(-c2cccnc2)nc1Cl (centres unmarked) | mortality at 200 ppm | 80 to 100% |
| CC(=O)CCC(=O)N(C)c1cn(-c2cccnc2)nc1Cl | mortality at 200 ppm | 80 to 100% |
| CCN(C(=O)CCN)c1cn(-c2cccnc2)nc1Cl | mortality at 200 ppm | 80 to 100% |
| CN(C(=O)[C@@H]1C=C[C@H](NC(=O)OC(C)(C)C)C1)c1cn(-c2cccnc2)nc1Cl | mortality at 200 ppm | 80 to 100% |
